- SUBJECT OF TEST: free FIXa (activated Factor IX) (UniProt P00740 47-191; P00740 227-461)
- TEST DETAILS: BLI
REPORTED PROPERTY: pKd
Lab note — pKd values are minus log10 of concentrations in M.

Example entries and their recorded answers appear below.
>>> experimental_result("BIIB-9-452 (antibody, V domains shown) VH: QVQLVQSGAEVKKPGASVKVSCKASGYTFTSYYMHWVRQAPGQGLEWMGIINPSGGSTSYAQKFQGRVTMTRDTSTSTVYMELSSLRSEDTAVYYCARDGRLSYTWDRWGQGTLVTVSS VL: EIVMTQSPATLSVSPGERATLSCRASQSVSSNLAWYQQKPGQAPRLLIYGASTRATGIPARFSGSGSGTEFTLTISSLQSEDFAVYYCQQANNFPFTFGGGTKVEIK")
7.93
>>> experimental_result("BIIB-9-585 (antibody, V domains shown) VH: QLQLQESGPGLVKPSETLSLTCTVSGGSISSSDYYWGWIRQPPGKGLEWIGSIYYSGSTYYNPSLKSRVTISVDTSKNQFSLKLSSVTAADTAVYYCAREVGTYYYGLDFWFDPWGQGTLVTVSS VL: DIQMTQSPSSVSASVGDRVTITCRASQGISSWLAWYQQKPGKAPKLLIYAASSLQSGVPSRFSGSGSGTDFTLTISSLQPEDFATYYCQQANSYPITFGGGTKVEIK")
7.91
>>> experimental_result("BIIB-9-615 (antibody, V domains shown) VH: QVQLVQSGAEVKKPGASVKVSCKASGYTFTSYYMHWVRQAPGQGLEWMGIINPSGGSTSYAQKFQGRVTMTRDTSTSTVYMELSSLRSEDTAVYYCARDSPSSSSYWSLDLWGRGTLVTVSS VL: EIVLTQSPATLSLSPGERATLSCRASQSVSSYLAWYQQKPGQAPRLLIYDASNRATGIPARFSGSGSGTDFTLTISSLEPEDFAVYYCQQSCHWPWTFGGGTKVEIK")
7.63
>>> experimental_result("BIIB-9-1278 (antibody, V domains shown) VH: QVQLVQSGAEVKKPGASVKVSCKASGYTFTSYYMVWVRQAPGQGLEWMGIINPSGGSTSYAQKFQGRVTMTRDTSTSTVYMELSSLRSEDTAVYYCARGPGELGYYLAFDIWGQGTMVTVSS VL: EIVMTQSPATLSVSPGERATLSCRASQSVSSNLAWYQQKPGQAPRLLIYGASTRATGIPARFSGSGSGTEFTLTISSLQSEDFAVYYCQQHANFPPTFGGGTKVEIK")
7.18
>>> experimental_result("BIIB-9-477 (antibody, V domains shown) VH: EVQLLESGGGLVQPGGSLRLSCAASGFTFSNYAMSWVRQAPGKGLEWVSAISGSGGSTYYADSVKGRFTISRDNSKNTLYLQMNSLRAEDTAVYYCARGGVYSSSWMRFWGQGTLVTVSS VL: EIVMTQSPATLSVSPGERATLSCRASQSVSSSLAWYQQKPGQAPRLLIFGASTRATGIPARFSGSGSGTEFTLTISSLQSEDFAVYYCQQDVNWPITFGGGTKVEIK")
8.06
>>> experimental_result("BIIB-9-465 (antibody, V domains shown) VH: QVQLVQSGAEVKKPGASVKVSCKASGYTFTSYYMVWVRQAPGQGLEWMGIINPSGGSTSYAQKFQGRVTMTRDTSTSTVYMELSSLRSEDTAVYYCARSPTDGYYFDLWGRGTLVTVSS VL: DIQMTQSPSTLSASVGDRVTITCRASQSINSWLAWYQQKPGKAPKLLISDASSLESGVPSRFSGSGSGTEFTLTISSLQPDDFATYYCQQYEIFPFTFGGGTKVEIK")
7.70

# lookup: pKd of BIIB-9-1277 (antibody, V domains shown) VH: QVQLVQSGAEVKKPGASVKVSCKASGYTFTSYYMHWVRQAPGQGLEWMGIINPSGGSTSYAQKFQGRVTMTRDTSTSTVYMELSSLRSEDTAVYYCARGGTGYYYGSGSRDGYHYYYGMDVWGQGTTVTVSS VL: EIVMTQSPATLSVSPGERATLSCRASQSVSSYLAWYQQKPGQAPRLLIYDASNRATGIPARFSGSGSGTDFTLTISSLEPEDLAVYYCQQSANWPPTFGGGTKVEIK 7.23

Reported pKd for BIIB-9-1279 (antibody, V domains shown) VH: QVQLVQSGAEVKKPGASVKVSCKASGYTFTSYYMHWVRQAPGQGLEWMGIINPSGGSTSYAQKFQGRVTMTRDTSTSTVYMELSSLRSEDTAVYYCARGPTDSSGYLDMDVWGKGTTVTVSS VL: DIQMTQSPSSVSASVGDRVTITCRASQGISSWLAWYQQKPGKAPKLLIYAASSLQSGVPSRFSGSGSGTDFTLTISSLQPEDFATYYCQQASSFPPTFGGGTKVEIK : what is it? 7.39

Need pKd of BIIB-9-408 (antibody, V domains shown) VH: QVQLVQSGAEVKKPGASVKVSCKASGYTFTSYYMHWVRQAPGQGLEWMGIINPSGGSTTYAQKFQGRVTMTRDTSTSTVYMELSSLRSEDTAVYYCARDPGAYDDWSGYDDYGMDVWGQGTTVTVSS VL: EIVLTQSPATLSLSPGERATLSCRASQSVSSYLAWYQQKPGQAPRLLIYDASNRATGIPARFSGSGSGTDFTLTISSLEPEDFAVYYCQQAFVWPPITFGGGTKVEIK , thanks. 8.87

For the binder BIIB-9-888 (antibody, V domains shown) VH: QVQLVQSGAEVKKPGASVKVSCKASGYTFTSYYMHWVRQAPGQGLEWMGIINPSGGSTSYAQKFQGRVTMTRDTSTSTVYMELSSLRSEDTAVYYCARGPTDSSGYLDMDVWGKGTTVTVSS VL: EIVMTQSPATLSVSPGERATLSCRASQSVSSNLAWYQQKPGQAPRLLIYGASTRATGIPARFSGSGSGTEFTLTISSLQPEDFAVYYCQQAFNWPPTFGGGTKVEIK , what pKd is on record? 7.18
